# Subject Of Test: Calcium/calmodulin-dependent protein kinase type II subunit delta (Homo sapiens)
# Sequence (Q13557 whole entry): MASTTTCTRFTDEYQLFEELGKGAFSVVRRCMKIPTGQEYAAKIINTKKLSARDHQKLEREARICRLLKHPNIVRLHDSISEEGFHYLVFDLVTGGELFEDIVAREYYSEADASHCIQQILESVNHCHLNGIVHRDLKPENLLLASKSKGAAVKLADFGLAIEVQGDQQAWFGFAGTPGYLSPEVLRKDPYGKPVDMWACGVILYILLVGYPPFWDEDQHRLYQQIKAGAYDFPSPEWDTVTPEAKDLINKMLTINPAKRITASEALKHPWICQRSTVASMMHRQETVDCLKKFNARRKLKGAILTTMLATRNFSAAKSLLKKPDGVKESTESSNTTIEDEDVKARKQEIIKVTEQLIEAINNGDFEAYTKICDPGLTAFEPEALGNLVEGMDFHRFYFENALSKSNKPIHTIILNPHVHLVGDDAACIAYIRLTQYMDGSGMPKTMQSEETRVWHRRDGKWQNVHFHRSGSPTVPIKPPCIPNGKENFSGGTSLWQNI
The source made the active and inactive calls.
Hello, when you answer, please use one of the following outcomes: active, inactive

Query: Recorded test call requested for O=c1[nH]c([C@@H]2CCCN2)nc2c1oc1ccc(Cl)cc12
Result: inactive

Query: # outcome recorded in this test, key = C=CC(=O)Nc1cc(Nc2nccc(-c3cn(C)c4ccccc34)n2)c(OC)cc1N(C)CCN(C)C
Result: inactive

Query: Just curious, what result did NC[C@@](O)(c1ccc(Cl)cc1)c1ccc(-c2cn[nH]c2)cc1 get here?
Result: inactive

Query: State the result this test recorded for O=S(=O)(c1cccc2cnccc12)N1CCCNCC1 .
Result: inactive

Query: Assay outcome for O=C(Nc1ccc(OC(F)(F)F)cc1)c1sccc1NCc1ccnc2ccccc12 : what was it?
Result: inactive

Query: I'd appreciate the recorded outcome for CN1CCN(c2nc(C3=C(c4c[nH]c5ccccc45)C(=O)NC3=O)c3ccccc3n2)CC1 from this test.
Result: inactive

---
Query: // return assay outcome for Cc1ccc(C(=O)Nc2ccc(Oc3cc4cnn(C)c4cc3-c3cn[nH]c3)c(F)c2)c(=O)n1-c1ccc(F)cc1
Result: inactive

Query: Hey, what did the test say about COc1cc2ncnc(Nc3ccc(F)c(Cl)c3)c2cc1NC(=O)/C=C/CN1CCCCC1 [DACOMITINIB ANHYDROUS] ?
Result: inactive

Query: Outcome? CNC(=O)c1cccc(-c2ccc3c(N4CCOC[C@@H]4C)nc(N4CCOC[C@@H]4C)nc3n2)c1
Result: inactive

Query: What outcome does the record of this test show for c1cc(OCCN2CCCCC2)cc(-c2n[nH]c3ccc(-c4nc[nH]n4)cc23)c1 ?
Result: inactive

Query: Recorded test outcome, item CC[C@@](C)(Nc1ccnc(-c2c[nH]c3ncccc23)n1)C(=O)NCC(F)(F)F
Result: active

Query: Short answer needed: outcome of this test for Cn1c(=O)c(F)c(Nc2ccc(I)cc2F)c2c(=O)n(C[C@@H](O)CO)cnc21 ?
Result: inactive

Query: What was the test verdict on O=S(=O)(c1cccc2c(O)nccc12)N1CCCNCC1 [HYDROXYFASUDIL] ?
Result: inactive

Query: Each compound tested received a call. Report the one for C[C@@H]1COC(Nc2ccc3ncnc(Nc4ccc(OCc5nccs5)c(Cl)c4)c3c2)=N1 .
Result: inactive

Query: Status in this test for Cc1c(NC(=O)OC[C@@H]2COCCN2)cn2ncnc(Nc3ccc4c(cnn4Cc4cccc(F)c4)c3)c12 ?
Result: inactive

Query: Call for entry CCc1cc2c(cc1N1CCC(N3CCOCC3)CC1)C(C)(C)c1[nH]c3cc(C#N)ccc3c1C2=O :
Result: inactive

Query: Tell me the recorded outcome of this test for NC(=O)c1ccc(N(C(N)=O)c2c(F)cccc2F)nc1-c1ccc(F)cc1F .
Result: inactive

----------
# Subject Of Test: Glycine--tRNA ligase (Homo sapiens, UniProt P41250)
# Sequence (P41250 whole entry): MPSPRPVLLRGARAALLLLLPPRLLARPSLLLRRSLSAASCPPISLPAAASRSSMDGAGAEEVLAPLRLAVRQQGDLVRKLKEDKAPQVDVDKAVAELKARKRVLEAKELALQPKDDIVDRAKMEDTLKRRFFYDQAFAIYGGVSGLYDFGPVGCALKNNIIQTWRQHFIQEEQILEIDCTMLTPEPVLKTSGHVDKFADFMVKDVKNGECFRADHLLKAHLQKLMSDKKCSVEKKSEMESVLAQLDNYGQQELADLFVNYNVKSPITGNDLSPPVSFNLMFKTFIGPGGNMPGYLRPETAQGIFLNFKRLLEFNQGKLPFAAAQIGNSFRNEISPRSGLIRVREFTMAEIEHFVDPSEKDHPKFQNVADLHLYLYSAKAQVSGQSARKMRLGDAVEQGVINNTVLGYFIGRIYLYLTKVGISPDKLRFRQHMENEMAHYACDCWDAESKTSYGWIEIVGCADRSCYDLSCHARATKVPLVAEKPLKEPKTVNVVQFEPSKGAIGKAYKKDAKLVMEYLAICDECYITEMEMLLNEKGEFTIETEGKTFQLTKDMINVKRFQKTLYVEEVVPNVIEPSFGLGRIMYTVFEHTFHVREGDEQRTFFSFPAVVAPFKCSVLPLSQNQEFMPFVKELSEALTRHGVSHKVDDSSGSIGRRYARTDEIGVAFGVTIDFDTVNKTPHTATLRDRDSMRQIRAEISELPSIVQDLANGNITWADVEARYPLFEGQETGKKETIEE
The source made the active and inactive calls.
Endpoint Name: Kd

Take a look at these entries with their results.
Response field Kd (Glycine--tRNA ligase (Homo sapiens, UniProt P41250)) for item O=S(=O)(c1cccc2c(O)nccc12)N1CCCNCC1 [HYDROXYFASUDIL] : > 30 µM (inactive)

Form field Kd for item Cc1cc(-c2cc(OC(=O)c3ccccc3)ccc2Cl)cc2nnc(Nc3ccc(OCCN4CCCC4)cc3)nc12 on Glycine--tRNA ligase (Homo sapiens, UniProt P41250): > 30 µM (inactive)

Item CCOc1ccn(-c2ccc(F)cc2)c(=O)c1C(=O)Nc1ccc(Oc2ccnc(N)c2Cl)c(F)c1 ; assay system Glycine--tRNA ligase (Homo sapiens, UniProt P41250); Kd reported as > 30 µM (inactive)

Glycine--tRNA ligase (Homo sapiens, UniProt P41250) assay, compound Cc1c(Cn2c(C)nc3c(C(=O)O)cc(N4CCOCC4)cc32)cccc1C(F)(F)F , recorded Kd = > 30 µM (inactive)

I looked up O=S(=O)(c1cccc2cnccc12)N1CCCNCC1 and its Kd for Glycine--tRNA ligase (Homo sapiens, UniProt P41250) was > 30 µM (inactive)

More entries:
Reported Glycine--tRNA ligase (Homo sapiens, UniProt P41250) Kd for item NC(=O)c1ccc(N(C(N)=O)c2c(F)cccc2F)nc1-c1ccc(F)cc1F was > 30 µM (inactive)

Param item: CNC(=O)c1ccc(Nc2ncc(C(F)(F)F)c(NCc3nccnc3N(C)S(C)(=O)=O)n2)cc1 ; param system: Glycine--tRNA ligase (Homo sapiens, UniProt P41250); output Kd: > 30 µM (inactive)

Test item O=C(O)c1ccc2c(c1)nc(Nc1cccc(Cl)c1)c1ccncc12 ; Glycine--tRNA ligase (Homo sapiens, UniProt P41250); reported Kd was > 30 µM (inactive)

Simply: CCc1nc(C(N)=O)c(Nc2ccc(N3CCC(N4CCN(C)CC4)CC3)c(OC)c2)nc1NC1CCOCC1 , Glycine--tRNA ligase (Homo sapiens, UniProt P41250), Kd = > 30 µM (inactive)

// compound COc1cc2c(Oc3ccc4[nH]c(C)cc4c3F)ncnc2cc1OCCCN1CCCC1 , assay Glycine--tRNA ligase (Homo sapiens, UniProt P41250), Kd value: > 30 µM (inactive)

Short answer on Glycine--tRNA ligase (Homo sapiens, UniProt P41250) for CC[C@@](C)(Nc1ccnc(-c2c[nH]c3ncccc23)n1)C(=O)NCC(F)(F)F , Kd: > 30 µM (inactive)

Measured Kd (Glycine--tRNA ligase (Homo sapiens, UniProt P41250)), entry COc1cc2nccc(Oc3ccc(NC(=O)C4(C(=O)Nc5ccc(F)cc5)CC4)cc3)c2cc1OC [CABOZANTINIB] : > 30 µM (inactive)
